Values were extracted from PubChem BioAssay (NCI).

Tested on: IGROV1 ovarian
Assay notes: NCI-60 one-dose screen, 48 h (100 = growth as untreated, 0 = no growth, -100 = all killed)
Applied conditions: 10 µM unless noted
About 83,000 compounds went through this panel and 20% of them were active in at least one assay; those are over-represented in the sample as a whole.
# binarize growth: threshold 40% inclusive, high side MET, low side NOT MET

Molecule	Category label
Cc1ccc([C@H]2c3[nH]c4ccccc4c3C[C@H]3C(=O)N(CCCCCCC(=O)NO)CC(=O)N23)s1	MET
O=C1Nc2ccccc2/C1=N\c1nnc(-c2ccccc2)o1	MET
O=[N+]([O-])c1ccc(NC(=S)NNC(=S)Nc2ccc(Br)cc2)cc1	MET
COc1ccc2c(c1)C=CC1(O2)Oc2ccc(OC)cc2C=C1C (configuration not stated)	NOT MET
COc1ccc(/C=N/NC(=O)c2c(N)nn(C)c2Nc2ccccc2)cc1Oc1ccccc1	MET
COc1ccc(C2CC(c3cccc(OCCCCOc4cccc(C5=NOC(c6ccc(OC)cc6)C5)c4)c3)=NO2)cc1 (configuration not stated)	MET
Cn1cc(-c2nnc(N)nc2-c2c[nH]c3ccc(F)cc23)c2cc(Br)ccc21	NOT MET
CC(C)C(/C=C/c1[nH]ncc1-c1cc(Cl)ccc1O)N1CCOCC1 (configuration not stated)	MET
CN(C)c1ccc(-c2cc(-c3c[nH]c4ccccc34)nc(N)c2C#N)cc1	MET
CCNC(=O)Oc1ccc(/C(=C(/C)c2ccc(OC)cc2)c2ccc(OCCN3CCCCCC3)cc2)cc1	MET
O=C(COc1ccc(/C=C2\C(=O)Nc3ccc(F)cc32)cc1)Nc1ccccc1	MET
CCOC(=O)c1cccnc1Nc1ccc(NC(=O)Nc2ccc(Cl)c(C(F)(F)F)c2)cc1	NOT MET
Cc1[nH]c(C(=O)Nc2ccccc2OCc2cccc(C(=O)NC3CCNC3)c2)c(Cl)c1Cl (configuration not stated)	NOT MET
Clc1ccc(CSc2nnc(-c3ccc(Cl)cc3)n2-c2ccccc2)cc1	MET
NC(=O)c1ncn2c(=O)n(CCF)nnc12	MET
NS(=O)(=O)c1ccc(Nc2nc(Nc3ccccc3)nc(N3N=C(c4ccc(Cl)cc4)CC3c3ccc(Cl)cc3)n2)cc1 (configuration not stated)	NOT MET
COc1cccc(N2CCN(C3=C(Cl)C(=O)c4ncccc4C3=O)CC2)c1	MET
CCN(CC)CCOc1ccc(C(=C(C)Cc2ccc(OC)cc2)c2ccc(OCCN(CC)CC)cc2)cc1	MET
CNCCN(C)c1ccc(Nc2cc(NC3CC3)n3ncc(C#N)c3n2)cc1NC(C)=O	NOT MET
CS(=O)(=O)c1ccc(/C(=N/N=C(N)N)c2ccc(Cl)cc2)cc1	MET
CCCc1cc2cc(-n3nc(CC)c4c3CC(C)(C)CC4=O)cc(NC3CCC(O)CC3)c2c(=O)[nH]1 (configuration not stated)	NOT MET
Cc1ccc(Nc2nc(SC(C)C)nc(-c3ccccc3)c2C#N)cc1	MET
COc1ccc(N2CCN(C3=C(Cl)C(=O)c4ncccc4C3=O)CC2)cc1	MET
COc1cc2oc(-c3cccc(NC(=O)[C@@H](N)C(C)C)c3)cc(=O)c2c(OC)c1OC	MET
CCc1cccc2c3c(sc12)C(c1ccc(F)cc1)C(C#N)=C(/N=C/c1ccc(Cl)cc1)O3 (configuration not stated)	NOT MET
NC1[C@H]2CN(c3cnc(C(=O)Nc4cc(F)cc5cccnc45)cn3)C[C@@H]12 (some centres not stated)	NOT MET
Cn1ncc2ncc(-c3ccc4ncc(C#N)c(N5CCc6cc(F)c(Cl)cc65)c4c3)cc21	NOT MET
Cc1ccc2c(n1)C(=O)C(Cl)=C(Nc1ccc(C(F)(F)F)cc1)C2=O	NOT MET
CC[C@]12C=CCN3CC[C@@]4(c5ccc(OC)cc5N(C)[C@H]4[C@@](O)(C(=O)OC)[C@@H]1OC(=O)CCN1CCc4ccccc4C1)[C@@H]32	MET
CC1=C(C)C(=O)C(Nc2cccc(C(F)(F)F)c2)=C(Br)C1=O	MET
O=C(CSc1nc2ccccc2c(=O)n1-c1ccccc1)Nc1ccc(S(=O)(=O)Nc2nccs2)cc1	MET
CC(=O)N(O)CCCCCNC(=O)CCC(=O)N(O)CCCCCNC(=O)CCC(=O)N(O)CCCCCN(CCCCCCCCCC[P+](c1ccccc1)(c1ccccc1)c1ccccc1)CCCCCCCCCC[P+](c1ccccc1)(c1ccccc1)c1ccccc1	NOT MET
C/C(=N\NC(N)=S)c1nnn(-c2ccc([N+](=O)[O-])cc2)c1C	MET
CC1=C(C)C(=O)C(Nc2ccc3c(c2)OCO3)=C(Br)C1=O	MET
CC[C@H](CC[C@@H](C)[C@H]1CC[C@H]2[C@@H]3CC(=O)C4=CC(=O)/C(=C/c5ccc([N+](=O)[O-])cc5)C[C@]4(C)[C@H]3CC[C@]12C)C(C)C	MET
Cc1ccc(C(=O)Nc2ccc(CNCCN3CCNCC3)c(C(F)(F)F)c2)cc1C#Cc1cnc2cccnn12	NOT MET
Cn1cc(-c2nn3cc(-c4ccncc4)nc3s2)c2cc(F)ccc21	MET

----------
System: CCRF-CEM leukemia
Assay notes: NCI-60 one-dose screen, 48 h (100 = growth as untreated, 0 = no growth, -100 = all killed)
Applied conditions: 10 µM unless noted
The panel holds about 83,000 compounds, 20% with a hit somewhere; the sample as a whole holds those more often.
Think of 30% as a floor: if growth stands on it or above, it is Condition met; beneath it, Condition not met.

                                    molecule        test_target     category_label
 0            C#Cc1nc(/C=C\CCCCCCC(=O)NO)cs1  CCRF-CEM leukemia  Condition not met
 1  COc1ccc2c(c1)c(-c1nnc(N)nc1-c1c[nH]c3ccc(F)cc13)cn2C  CCRF-CEM leukemia  Condition not met
 2  COc1cc(C(=O)c2cc(C(C)=O)c3ccc(C)cn23)cc(OC)c1OC  CCRF-CEM leukemia      Condition met
 3  CNc1sc(S(=O)(=O)NC)nc1S(=O)(=O)c1ccc(C)cc1  CCRF-CEM leukemia      Condition met
 4            C#Cc1nc(/C=C/CCCCCCC(=O)NO)cs1  CCRF-CEM leukemia  Condition not met
 5  CN1CCN(c2ccc(Nc3nc(NCCNS(=O)(=O)c4ccc(Cl)cc4)c4sccc4n3)cc2)CC1  CCRF-CEM leukemia      Condition met
 6     Cn1c(SCC(=O)c2ccc(F)cc2)nc2ccccc2c1=O  CCRF-CEM leukemia      Condition met
 7  C#C[C@]1(O)CC[C@H]2[C@@H]3CC=C4c5sc(Nc6cc(C)cc(C)c6)nc5CC[C@]4(C)[C@H]3CC[C@@]21C  CCRF-CEM leukemia  Condition not met
 8  N/C(=N\C(N)=N\c1nc2ccccc2s1)c1ccc(Cl)cc1  CCRF-CEM leukemia      Condition met
 9  O=C(CSc1nnc(-c2ccc(Cl)cc2)n1-c1ccccc1)Nc1ccc(Cl)cc1  CCRF-CEM leukemia      Condition met
10  CNC(=O)c1cc(Oc2ccc3c(c2)sc2nc(-c4ccc(N(C)C)cc4)cn23)ccn1  CCRF-CEM leukemia  Condition not met
11  NC(=O)n1c(=O)n(-c2cccc(C(F)(F)F)c2)c(=O)c2cc(-c3ccc(F)cc3F)ccc21  CCRF-CEM leukemia  Condition not met
12             CCCCSC1=C(Cl)CN(c2ccccc2)C1=O  CCRF-CEM leukemia      Condition met
13  CC(C)(C)Nc1nc2c(OCCc3ccccc3)cccn2c1-c1ccc([N+](=O)[O-])cc1  CCRF-CEM leukemia      Condition met
14  COc1cc2c3c(cc4c5c(ccc4c3c1OC)OCO5)N(CCN(C)C)C2=O  CCRF-CEM leukemia  Condition not met
15  NS(=O)(=O)c1cccc(Nc2nc(SCC(=O)c3ccc(Cl)cc3)nc3c2CCC3)c1  CCRF-CEM leukemia      Condition met
16  O=C(CSc1cc[n+](CCCCO)c2ccccc12)n1ccc2ccccc21  CCRF-CEM leukemia      Condition met
17  Clc1ccc2c(N/N=C/c3c[nH]c4ccccc34)ccnc2c1  CCRF-CEM leukemia  Condition not met
18  N#Cc1cnc2ccc(-c3cnc4n[nH]nc4c3)cc2c1N1CCc2cc(F)c(Cl)cc21  CCRF-CEM leukemia  Condition not met
19  CN(C)S(=O)(=O)c1ccc(-c2nc(C(Cl)Cl)nc3cc(-c4ccc(F)cc4)nn23)cc1  CCRF-CEM leukemia  Condition not met
20  O=c1[nH][nH]c(-c2ccc(F)cc2)c1-c1nc2ccccc2s1  CCRF-CEM leukemia      Condition met
21  COc1cc(OC)cc(-c2cc(-c3c[nH]c4ccccc34)nc(-c3c[nH]c4ccccc34)c2C#N)c1  CCRF-CEM leukemia      Condition met
22  O=C(COc1ccc(/C=C2\C(=O)Nc3ccc(F)cc32)cc1)Nc1ccccc1  CCRF-CEM leukemia      Condition met
23  Cc1nc(N)sc1-c1csc(Nc2ccc(C(F)(F)F)cc2)n1  CCRF-CEM leukemia  Condition not met
24  CCN(CC)S(=O)(=O)c1ccc(-c2nc(C(Cl)Cl)nc3cc(-c4ccc(F)cc4)nn23)cc1  CCRF-CEM leukemia      Condition met
25  CC1=C(C)C(=O)C(Nc2cccc(C(=O)OC(C)(C)C)c2)=CC1=O  CCRF-CEM leukemia      Condition met
26  N#Cc1nc(-c2ccc(Cl)cc2)oc1N1CCC(S(=O)(=O)N2CCOCC2)CC1  CCRF-CEM leukemia      Condition met
27  COc1ccc(NC2=C(Br)C(=O)C(C)=C(C)C2=O)cc1OC  CCRF-CEM leukemia  Condition not met
28  O=C1Nc2ccccc2/C1=C/c1ccc(OCC(=O)c2ccccc2)cc1  CCRF-CEM leukemia      Condition met
29  N#Cc1cccc(-c2cc(-c3ccc4c(c3)OCCO4)[nH]n2)c1  CCRF-CEM leukemia  Condition not met
30  CCOP(=O)(OCC)OC[C@]12CCC(C)(C)CC1C1=CC[C@@H]3[C@@]4(C)CCCNC(C)(C)[C@@H]4CC[C@@]3(C)[C@]1(C)CC2 (some centres undefined)  CCRF-CEM leukemia  Condition not met
31  Cn1cc(-c2nnc(N)nc2-c2c[nH]c3ccc(F)cc23)c2cc(Br)ccc21  CCRF-CEM leukemia  Condition not met
32  O=C(NCCNc1cc(-c2cn(-c3ccccc3)nc2-c2cccc(O)c2)ccn1)Nc1cc(C(F)(F)F)cc(C(F)(F)F)c1  CCRF-CEM leukemia      Condition met
33  CN1CCN(Cc2ccc(NC(=O)c3cncc(C#Cc4cnc5ccc(N6CCOCC6)nn45)c3)cc2C(F)(F)F)CC1  CCRF-CEM leukemia  Condition not met
34  COc1ccc(C2CC(c3cccc(OCCCCOc4cccc(C5=NOC(c6ccc(OC)cc6)C5)c4)c3)=NO2)cc1 (centres undefined)  CCRF-CEM leukemia      Condition met
35  COCCOc1ccc2ncc(C#Cc3cncc(C(=O)Nc4ccc(CN5CCN(C)CC5)c(C(F)(F)F)c4)c3)n2n1  CCRF-CEM leukemia  Condition not met
36  O=C1[C@@H]2Cc3c([nH]c4ccccc34)[C@@H](c3ccc(Cl)cc3)N2C(=O)CN1C1CCN(Cc2ccccc2)CC1  CCRF-CEM leukemia  Condition not met
